Taken from patent US12590062B2.

# tested on: PD-L1 (Homo sapiens)
# Construct: determine if they can specifically dimerize the extracellular domains of PD-L1
# Sequence (Q9NZQ7 19-238 limits assumed): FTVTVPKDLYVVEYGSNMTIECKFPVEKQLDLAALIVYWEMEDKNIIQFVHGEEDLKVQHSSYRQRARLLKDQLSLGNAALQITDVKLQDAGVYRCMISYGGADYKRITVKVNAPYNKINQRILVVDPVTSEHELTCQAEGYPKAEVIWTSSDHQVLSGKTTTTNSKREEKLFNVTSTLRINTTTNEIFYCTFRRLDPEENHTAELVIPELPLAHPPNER
# Sequence (Q9NZQ7 19-238 limits assumed): as above
# assay procedure: PD-L1/PD-L1 dimerization biochemical protein-protein interaction assay (ALPHA)
# Type: binding
# test parameters: compound-induced PD-L1 dimerization, head prints '1 nM' (0.5 nM His-tagged PD-L1 and 0.5 nM FLAG-tagged PD-L1), read-out: AC50 PDL1 Dimer Alpha 1 nM
Each record here notes measured AC50.
quantity name: AC50 (nM)

{"compound": "Cc1c(COc2cc(OCc3cncc(C#N)c3)c(CN3CC[C@@H](O)C3)cc2Cl)cccc1-c1cccc(-c2ncc(CN3CC[C@@H](O)C3)cn2)c1C", "reported result": 943}
{"compound": "N#Cc1cncc(COc2nc(OCc3cccc(-c4cccc(-c5ccc(OCCNCCO)cc5)c4Cl)c3Cl)c(Cl)cc2CN2C[C@@H](O)C[C@H]2C(=O)O)c1", "reported result": 77.8}
{"compound": "COc1nc(O[C@H]2CCc3c(-c4cccc(-c5ccc6c(c5)C[C@@H](N)C6)c4Cl)cccc32)c(Br)cc1CNC[C@@H]1CCC(=O)N1", "reported result": 94.2}
{"compound": "COc1nc(O[C@H]2CCc3c(-c4cccc(-c5cnc6c(CN7CC8(CNC(=O)C8)C7)cn(C)c6n5)c4Cl)cccc32)c(Cl)cc1CN1CC(C(=O)O)C1", "reported result": 69.9}
{"compound": "COc1nc(OCc2cccc(-c3cccc(COc4nc(OC)c(CNC[C@@H](O)CC(=O)O)cc4Br)c3C#N)c2Cl)c(Br)cc1CNC[C@@H](O)CC(=O)O", "reported result": 126}
{"compound": "N#Cc1cc(C#N)cc(COc2nc(OCc3cccc(-c4cccc(-c5ccc(OCCN6CC7(CCC(=O)N7)C6)cc5)c4Cl)c3Cl)c(Cl)cc2CNC[C@@H](O)CC(=O)O)c1", "reported result": 73.4}
{"compound": "COc1cc(-c2cccc(-c3cccc(COc4cc(OCc5cncc(C#N)c5)c(CN[C@@](C)(CO)C(=O)O)cc4Cl)c3C)c2C)ccc1CN", "reported result": 172}
{"compound": "COc1cc(-c2cccc(-c3cccc(-c4ccc(CNC[C@@H]5CCC(=O)N5)c(OC)c4)c3Br)c2Br)ccc1CNC[C@@H]1CCC(=O)N1", "reported result": 360}
{"compound": "COc1nc(O[C@H]2CCc3c(-c4cccc(-c5cnc(CN6CC(C)(O)C6)c(OC)n5)c4Cl)cccc32)c(Cl)cc1CN1CC[C@H](C(=O)O)C1", "reported result": 60.6}
{"compound": "Cc1c(COc2cc(OCc3cncc(C#N)c3)c(CN[C@@](C)(CO)C(=O)O)cc2Cl)cccc1-c1cccc(-c2ccc3c(cnn3CCN3CC[C@@H](O)C3)n2)c1C", "reported result": 134}
{"compound": "Cc1c(-c2ccc(OCCNC[C@@H](O)CC(=O)O)cc2)cccc1-c1cccc2c1CC[C@@H]2Oc1nc(OCc2cccc(C#N)c2)c(CNC[C@@H](O)CC(=O)O)cc1Br", "reported result": 39.2}
{"compound": "Cc1c(COc2cc(OCc3cncc(C#N)c3)c(CNC[C@@H](O)CC(=O)O)cc2Cl)cccc1-c1cccc(-c2ccc3c(c2)CC(NCC(=O)O)C3)c1C (some centres unmarked)", "reported result": 137}
{"compound": "N#CCOc1cc(-c2cccc(-c3cccc(-c4ccc(CNC[C@@H]5CCC(=O)N5)c(OCC#N)c4)c3Cl)c2Cl)ccc1CNC[C@@H]1CCC(=O)N1", "reported result": 71.3}
{"compound": "Cc1c(COc2nc(OCc3cncc(C#N)c3)c(CNCCO)cc2Cl)cccc1-c1cccc(-c2ccc(C(O)CN(C)C)cc2)c1C (centres unmarked)", "reported result": 292}
{"compound": "Cc1c(COc2cc(OCc3cncc(C#N)c3)c(CNC[C@@H](O)CC(=O)O)cc2Cl)cccc1-c1cccc(-c2cnc3c(CNC[C@@H](O)CC(=O)O)cccc3c2)c1C", "reported result": 144}
{"compound": "COc1nc(-c2cccc(-c3cccc(-c4ccn5cc(CN6CC7(CCC(=O)N7)C6)nc5c4)c3Cl)c2Cl)ccc1CN1CC2(CCC(=O)N2)C1", "reported result": 389}
{"compound": "Cc1c(COc2cc(OCc3cncc(C#N)c3)c(CNC[C@@H](O)CC(=O)O)cc2Cl)cccc1-c1cccc(-c2ccc(C3=NCCN3)c(OCCCC#N)n2)c1C", "reported result": 44.1}
{"compound": "COc1nc(-c2cccc(-c3cccc(-c4ccn5cc(CN6CC(O)C6)nc5c4)c3Cl)c2Cl)ccc1CN1CC(O)C1", "reported result": 156}
{"compound": "C[C@@](CO)(NCc1cc(Br)c(O[C@H]2CCc3c(-c4cccc(-c5ccc(C6=NCCN6)cc5)c4Cl)cccc32)nc1OCc1cncc(C#N)c1)C(=O)O", "reported result": 8.23}
{"compound": "Cc1c(COc2cc(OCc3cncc(C#N)c3)c(CNC[C@@H](O)CC(=O)O)cc2Cl)cccc1-c1cccc(-c2ccc3c(c2)CCC3N(C)C)c1C (some centres unmarked)", "reported result": 144}
{"compound": "COc1nc(O[C@H]2CCc3c(-c4cccc(-c5ccc(CNC[C@@H]6CCC(=O)N6)c(OCC#N)c5)c4Cl)cccc32)c(Cl)cc1CNC[C@@H]1CCC(=O)N1", "reported result": 26}
{"compound": "CC(=O)NCCNCc1ccc(-c2cccc(-c3cccc(COc4cc(OCc5cncc(C#N)c5)c(CN[C@@](C)(CO)C(=O)O)cc4Cl)c3C)c2C)cc1", "reported result": 108}
{"compound": "CNC(=O)c1cc(-c2cccc(-c3cccc(COc4cc(OCc5cncc(C#N)c5)c(CNC[C@@H](O)CC(=O)O)cc4Cl)c3C)c2C)ccc1OCCNCCO", "reported result": 139}
